- measured on: T1, MYOF peptide complexed with HLA-A*02:01 on T2 cells (human)
- T1 construct: whole, on cells
- experiment summary: flow cytometry, peptide-loaded T2 cells;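 further: binding of single-chain Fv antibody constructs, raised in XenoMouse, to peptide-pulsed T2 cells measured by flow cytometry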
Would you mind telling me the reported Signal/background of each entry?
// no unit, no text: just the number

input: Supply reported Signal/background belonging to this binder: 18179-D11 (scFv, scFv in bacterial lysate, detected with anti-Flag M2) scFv: EVQLLESGGGLVKPGGSLRLSCAASGFTFSNAWMSWVRQAPGKGLEWVGRIKGNTYGGTTDYAAPVKGRFTISRDDSKNTLFLQMNSLKTEDTAVYYCTTPSYSGSYYNYFSVMDVWGQGTTVTVSSGGGGSGGGGSGGGGSELQMTQSPSSLSASVGDRVTITCRTSQSISSYLNWYQQKPGRAPKLLIFAASSLQGGVPSRFSGSGSGTDFTLTISSLQPEDFATYYCQQTYSMPFTFGPGTKVDIK
output: 1.1

input: Supply reported Signal/background belonging to this binder: 18182-E5 (scFv, scFv in bacterial lysate, detected with anti-Flag M2) scFv: EVQLLESGGGLVQPGGSLRLSCAASGFTFSSYAMSWVRQAPGKGLEWVSTISGSGGGTYYADSVKGRFTISRDNSKNTLYLQMNSLRAEDTAVYYCATGKGVHLGFDYWGQGTLVTVSSGGGGSGGGGSGGGGSELVLTQPPSVSVAPGQTARITCGGNNIGSKSVHWHQQKPGQAPVLVVYDDNDRPSGIPERFSGSNSGNTATLTISRVEAGDEADYYCQVWDYSSDHVVFGGGTKLTVL
output: 0.9

input: Supply reported Signal/background belonging to this binder: 18182-G8 (scFv, scFv in bacterial lysate, detected with anti-Flag M2) scFv: EVQLLESGGGLVKPGGSLRLSCAASGFTFSSYAMNWVRQAPGKGLEWVSAISGSGGGTYYADSGKGRFTISRDNSKNTLYLQMNSLRAEDTAVYYCATGKGVHLNFDYWGQGTLVTVSSGGGGSGGGGSGGGGSELVLTQPPSVSVAPGQTARITCGGNNIGSKSVHWYQQKPGQAPVMVVYDDNDRPSGIPERFSGSNSGNTATLTISRVEAGDEADYYCQVWDSSSDHVVFGGGTKLTVL
output: 1

input: Supply reported Signal/background belonging to this binder: 18081-H11 (scFv, scFv in bacterial lysate, detected with anti-Flag M2) scFv: EVQLLESGPALVKPTQTLTLTCTFSGFSFTTHKMGVDWIRQPPGKALEWLALIYWNDDKRYSPSLQSRLTITKDTSKNQVVLTMTNMDPVDTATYYCAYRRYNWNYENWFDPWGQGTLVTVSSGGGGSGGGGSGGGGSELQMTQSPSSLSASVGDRVTITCQASQDISNYLNWYQQKPGKAPKLLIYAASSLQSGVPSRFSGSGSGTDFTLTISSLQPEDFATYYCQQSYTTPFTFGPGTKVEIK
output: 1.1

input: Supply reported Signal/background belonging to this binder: 18182-B12 (scFv, scFv in bacterial lysate, detected with anti-Flag M2) scFv: EVQLLESGGGLVQPGGSLRLSCAASGFTFSSYAMSWVRQAPGKGLEWVSAISGSGGGTYYADSVKGRFTISRDNSKNTLYLQMSSLRAEDTAVYYCATGKGVHLGFDYWGQGTLVTVSSGGGGSGGGGSGGGGSELVLTQPPSVSVAPGQTARITCGGNNIGSKSVHWHQQKPGQAPVLVVYDDNDRPSGIPERFSGSNSGNTATLTISRVEAGDEADYYCQVWDYSSDHVVFGGGTKLTVL
output: 0.8

Taken from patent US20220017636A1.
